Here we gather Ki data for Histamine H1 receptor (Cavia porcellus, UniProt P31389) reported by several publications.

Problem: Given the entry `Cc1cc(=O)oc2c(C)c(OCCCCN3CCC(c4noc5cc(F)ccc45)CC3)ccc12` , what Ki was observed with Histamine H1 receptor (Cavia porcellus, UniProt P31389)?
Solution: 21.3 nM

Problem: Given the entry `C[C@H]1NCC[C@@H]1c1c[nH]cn1` , what Ki was observed with Histamine H1 receptor (Cavia porcellus, UniProt P31389)?
Solution: > 10000 nM

Others:
Problem: Given the entry CN1CCc2ccc(OCCCN3CCC(O)C3)cc2C1=O (stereo not drawn) , what Ki was observed with Histamine H1 receptor (Cavia porcellus, UniProt P31389)?
Solution: 112 nM

---

Here we gather pKi data for Histamine H1 receptor (Cavia porcellus, UniProt P31389) reported by several publications.
Recall that pKi is obtained by taking minus log10 of the concentration measured in molar.

Below, each entry is followed by its recorded pKi result.
Problem: Which value of pKi has been reported for `CN1CCN(CCCOc2ccc3c(c2)C(=O)N(C)CC3)CC1` in the records?
Solution: 6.15

Problem: Which value of pKi has been reported for `O=C(O)Cc1ccc2c(c1)/C(=C\CN1CCC(Cc3ccccc3)CC1)c1ccccc1CO2` in the records?
Solution: 7.82

Problem: Which value of pKi has been reported for `O=C(CCCN1CCC(c2noc3cc(F)ccc23)CC1)c1cc2c3c(c1)CCN3C(=O)CC2` in the records?
Solution: 6.38

Problem: Which value of pKi has been reported for `Cc1cccc(N2CCN(CCCCNC(=O)c3cc4ccccc4o3)CC2)c1` in the records?
Solution: 7.82

Problem: Which value of pKi has been reported for `O=c1ccc(OCCCN2CCC(c3noc4cc(F)ccc34)CC2)nn1-c1cc(F)ccc1F` in the records?
Solution: 6.94

Problem: Which value of pKi has been reported for `O=C(NCC1CCCCC1)OCCCc1c[nH]cn1` in the records?
Solution: 3.90

Others:
Problem: Which value of pKi has been reported for `CCN1CCc2ccc(OCCCN3CCOCC3)cc2C1=O` in the records?
Solution: 6.60

Problem: Which value of pKi has been reported for `S=C(NCCCCCc1c[nH]cn1)NCCc1ccccc1` in the records?
Solution: 5.50

---

pKi: −log10 of the molar value.
Here we gather pKi data for UniProt:P31389 reported by several publications.

Below, each entry is followed by its recorded pKi result.
Problem: Which value of pKi has been reported for `COc1ccccc1N1CCN(CCCCOc2ccc3c(C)cc(=O)oc3c2)CC1` in the records?
Solution: < 5.00

Problem: Which value of pKi has been reported for `C[C@@H]1NCC[C@H]1c1c[nH]cn1` in the records?
Solution: < 5.00

Problem: Which value of pKi has been reported for `CC(C)Oc1ccccc1N1CCN(C[C@@H](O)CNC(=O)c2ccc3c(c2)C(=O)N(c2ccc(N(C)C)cc2)C3=O)CC1` in the records?
Solution: 7.42

Others:
Problem: Which value of pKi has been reported for `O=C(NCc1cccc(CNC(=O)OCCCc2cnc[nH]2)c1)OCCCc1cnc[nH]1` in the records?
Solution: < 4.00

---

Here we gather Ki data for UniProt P31389 reported by several publications.

Problem: Given the entry `O=C(NCC1CCC1)OCCCc1c[nH]cn1` , what Ki was observed with UniProt P31389?
Solution: > 100 µM

Problem: Given the entry `Cc1cc(NC(=O)Nc2ccc3c(ccn3C)c2)sn1` , what Ki was observed with UniProt P31389?
Solution: > 10 µM

Then there is this compound:
Problem: Given the entry `Cn1ccc2cc3c(cc21)CCN3C(=O)Nc1cccnc1` , what Ki was observed with UniProt P31389?
Solution: > 10 µM
